Target Or System: UniProtKB O43613
Sequence (O43613 whole entry): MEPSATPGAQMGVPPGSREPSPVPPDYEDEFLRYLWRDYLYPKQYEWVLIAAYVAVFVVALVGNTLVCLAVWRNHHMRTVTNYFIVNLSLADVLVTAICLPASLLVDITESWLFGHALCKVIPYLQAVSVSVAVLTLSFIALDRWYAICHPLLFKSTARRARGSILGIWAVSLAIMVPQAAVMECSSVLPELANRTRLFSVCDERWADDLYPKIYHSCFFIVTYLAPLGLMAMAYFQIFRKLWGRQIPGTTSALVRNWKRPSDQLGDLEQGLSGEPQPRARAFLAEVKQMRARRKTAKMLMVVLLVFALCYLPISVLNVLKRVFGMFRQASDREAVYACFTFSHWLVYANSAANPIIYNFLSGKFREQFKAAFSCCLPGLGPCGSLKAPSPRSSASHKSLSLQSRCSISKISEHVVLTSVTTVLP
Assay: In vitro assay: intracellular calcium measurements (FLIPR), antagonistic activity
Conditions Used: CHO cells expressing human orexin-1 receptor, orexin-A agonist, geometric mean, read-out: IC50 Ox1
Result Type: IC50 (nM)

>  <Compound>
Cc1ccc(-c2cccc(C)c2C)c(C(=O)N2CCC[C@@]2(C)c2nc3cc(C(F)(F)F)ccc3[nH]2)c1

>  <Endpoint Value>
91

$$$$
>  <Compound>
COc1ccc(-c2nccnc2C(=O)N2CCC[C@H]2c2nc3cccc(SC)c3[nH]2)cc1

>  <Endpoint Value>
112

$$$$
>  <Compound>
COc1cc2nc([C@@H]3[C@@H](C)CCN3C(=O)c3nc(C)sc3-c3ccc(C(F)(F)F)cc3)[nH]c2cc1OC

>  <Endpoint Value>
373

$$$$
>  <Compound>
C=C1C[C@@H](c2nc3cc(OC)ccc3[nH]2)N(C(=O)c2nc(C)sc2-c2cccc(Cl)c2)C1

>  <Endpoint Value>
21

$$$$
>  <Compound>
C=C1CC(c2nc3cc(Cl)c(C(F)(F)F)cc3[nH]2)N(C(=O)c2cc(C)sc2-c2ccc(C)c(C)c2)C1 (centres unmarked)

>  <Endpoint Value>
36

$$$$
>  <Compound>
C=C1CC(c2nc3cc(C)c(C)cc3[nH]2)N(C(=O)c2nc(C3CC3)sc2-c2cccc(C)c2)C1 (centres unmarked)

>  <Endpoint Value>
6

$$$$

(A) Cc1ccc(-n2nccn2)c(C(=O)N2CCC[C@@]2(C)c2nc3cc(F)c(Br)cc3[nH]2)n1
(B) COc1ccc(-c2ccc(C)cc2C(=O)N2CCC[C@@]2(C)c2nc3cc(C(F)(F)F)c(Cl)cc3[nH]2)cc1
**Q:** Returns: the argument ( A or B ) having the larger IC50. Use the label to indicate which entry you chose.
**A:** B
(B: 37 nM, A: 15 nM)

(I) C=C1C[C@@H](c2nc3ccc(Cl)c(C)c3[nH]2)N(C(=O)c2nc(C)sc2-c2ccc(Cl)c(Cl)c2)C1
(II) CO[C@H]1CN(C(=O)c2nc(C)sc2-c2cccc(Cl)c2)[C@](C)(c2nc3c(C)c(Cl)ccc3[nH]2)C1
**Q:** Given the listed items, does I or II have the lesser reported IC50? Use the label to indicate which entry you chose.
**A:** I

(a) CSc1ccc2nc([C@@H]3CCCN3C(=O)c3cnc(C)nc3-c3ccc(Br)c(Cl)c3)[nH]c2c1
(b) C=C1C[C@@H](c2nc3ccccc3[nH]2)N(C(=O)c2nc(C)sc2-c2cccc(Cl)c2)C1
**Q:** Given the listed items, does a or b have the lesser reported IC50? Use the label to indicate which entry you chose.
**A:** a

(a) Cc1ccccc1-c1nc(C(=O)N2CCC[C@@]2(C)c2nc3c(C)c(Cl)ccc3[nH]2)c(-c2ccc(F)cc2)s1
(b) COc1ccc(-n2nccn2)c(C(=O)N2C[C@H](OC)C[C@H]2c2nc3ccc(Cl)c(C)c3[nH]2)c1
**Q:** Returns: the argument ( a or b ) having the larger IC50. Use the label to indicate which entry you chose.
**A:** a

(P) C[C@@]1(c2nc3c(F)c(F)ccc3[nH]2)CCCN1C(=O)c1cc(F)ccc1-n1nccn1
(Q) C=C1C[C@@H](c2nc3cc(Cl)c(C(F)(F)F)cc3[nH]2)N(C(=O)c2c(-n3nccn3)ccc(OC)c2F)C1
(R) Cc1nc(C(=O)N2CCCC2c2nc3c(C)cccc3[nH]2)c(-c2cccc(Cl)c2)s1 (centres unmarked)
**Q:** Exam item: list the entries in increasing order of IC50. Sort the labels as requested; that list is your answer.
**A:** Q, R, P

(1) COc1cccc(-c2ccccc2C(=O)N2CCC[C@@]2(C)c2nc3cc(C)c(C)cc3[nH]2)c1
(2) CSc1ccc2nc([C@@H]3CCCN3C(=O)c3nc(C4CC4)sc3-c3ccc(C)cc3)[nH]c2c1
**Q:** Given the listed items, does 1 or 2 have the lesser reported IC50? Use the label to indicate which entry you chose.
**A:** 1
(1: 59 nM, 2: 115 nM)
